The values you see were collected from ChEMBL document CHEMBL1961873.

# System: Tyrosine-protein kinase ABL1 (Homo sapiens), P00519 [Y253F]
# condition-label: at 0.1 µM
endpoint-name: inhibition (%)
Respond with the bare value in %.

Value lookup for inhibition; key = `CCCN1CCC(c2ccc(Nc3nc(Nc4cc(F)ccc4C(N)=O)c4cc[nH]c4n3)c(OC)c2)CC1`
3.53

Value lookup for inhibition; key = `CCn1c(-c2nonc2N)nc2c(C#CC(C)(C)O)ncc(OC3CCNCC3)c21`
-0.54

Value lookup for inhibition; key = `CCn1c(-c2nonc2N)nc2c(C#CC(C)(C)O)nc(OC[C@H](N)c3ccccc3)cc21`
0.1

Value lookup for inhibition; key = `O=C(O[C@H]1CN[C@H](C#Cc2cc3ncnc(Nc4ccc(Cc5ccccc5)cc4)c3s2)C1)N1CCOCC1`
-1.94

Value lookup for inhibition; key = `c1cc(-c2cnn3nc(N4CCOCC4)ccc23)nc(NC2CC2)n1`
3.63

Value lookup for inhibition; key = `Fc1ccc(-c2nn3ccccc3c2-c2ccncc2)cc1`
1.97

Value lookup for inhibition; key = `CCOc1ccc2c(-c3ccnc(Nc4cccc(C(F)(F)F)c4)n3)cnn2n1`
2.21

Value lookup for inhibition; key = `O=S(=O)(CCNCc1ccc(-c2ccc3ncnc(Nc4ccc(OCc5cccc(F)c5)c(Cl)c4)c3c2)o1)c1ccccc1`
5.4

Value lookup for inhibition; key = `Cc1cccc(Nc2ncc(-c3ccccc3)o2)c1`
3.68

Value lookup for inhibition; key = `CCn1c(-c2nonc2N)nc2ccccc21`
3.97

----------
# subject-of-test: Phosphorylase b kinase gamma catalytic chain, liver/testis isoform (Homo sapiens) (UniProt P15735)
# Sequence (P15735 whole entry, canonical isoform): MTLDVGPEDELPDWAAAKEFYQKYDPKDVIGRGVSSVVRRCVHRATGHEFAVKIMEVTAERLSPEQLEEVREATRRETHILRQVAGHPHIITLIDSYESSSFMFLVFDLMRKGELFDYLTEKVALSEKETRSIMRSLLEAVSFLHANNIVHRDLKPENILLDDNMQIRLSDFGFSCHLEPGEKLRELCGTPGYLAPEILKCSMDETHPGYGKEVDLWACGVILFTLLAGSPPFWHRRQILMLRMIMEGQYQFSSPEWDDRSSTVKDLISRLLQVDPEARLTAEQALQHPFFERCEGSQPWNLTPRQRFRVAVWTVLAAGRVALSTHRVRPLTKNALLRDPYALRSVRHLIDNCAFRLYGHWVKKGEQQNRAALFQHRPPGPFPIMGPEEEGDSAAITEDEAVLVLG
# condition-label: at 0.1 µM
Exercise: state measured inhibition for each of the molecules provided.
Respond with the bare value in %.

Value lookup for inhibition; key = `CN(C)CCOc1ccc(-c2nc(-c3ccncc3)c(-c3ccc4c(c3)CC/C4=N\O)[nH]2)cc1`
3.65

Value lookup for inhibition; key = `c1ccc(-c2nc3n(c2-c2ccc4c(c2)OCO4)CCC3)nc1`
1.19

Value lookup for inhibition; key = `COc1ccc2c(-c3ccnc(Nc4cccc(OC(F)(F)F)c4)n3)cnn2n1`
6.32

Value lookup for inhibition; key = `CCOc1ccc2c(-c3ccnc(Nc4cccc(C(F)(F)F)c4)n3)cnn2n1`
3.64

Value lookup for inhibition; key = `CCn1c(-c2nonc2N)nc2c(C#CC(C)(C)O)ncc(OC3CCNCC3)c21`
4.06

Value lookup for inhibition; key = `COc1ccc(-c2cc(-c3c[nH]nc3-c3ccccn3)ccn2)cc1`
6.55

Value lookup for inhibition; key = `[O-][S+]1CCN(Cc2ccc(-c3ccc4ncnc(Nc5ccc(OCc6cccc(F)c6)c(Cl)c5)c4c3)o2)CC1`
7.01

Value lookup for inhibition; key = CC1=C(C(=O)Nc2cc(Cl)c3[nH]ncc3c2)C(c2ccc(C(F)(F)F)cc2)CC(=O)N1 (stereo not drawn)
3.02

Value lookup for inhibition; key = `CCn1c(-c2nonc2N)nc2ccccc21`
3.71

Value lookup for inhibition; key = `Fc1cccc(COc2ccc(Nc3ncnc4sc(-c5ccco5)cc34)cc2Cl)c1`
4.96

Value lookup for inhibition; key = `O=C(Nc1n[nH]c2cc(-c3ccc(F)cc3)ccc12)C1CC1`
6.96

Value lookup for inhibition; key = `COc1cc2ncn(-c3cc(OCc4ccccc4C(F)(F)F)c(C(=O)N(C)C)s3)c2cc1OC`
-1.54

Value lookup for inhibition; key = `Nc1ncc(-c2cccc(S(N)(=O)=O)c2)c2scc(-c3ccc(F)c(Cl)c3)c12`
6.23

Value lookup for inhibition; key = `NS(=O)(=O)c1ccc(N/N=C2\C(=O)Nc3ccc4ncccc4c32)cc1`
3.72

Value lookup for inhibition; key = `CNC(=O)c1cc(-c2ccc(F)cc2)cc(-c2ccc(S(=O)(=O)N3CCCC3)cc2)c1N`
3.8

Value lookup for inhibition; key = `N#Cc1c(NC(=O)c2ccc(F)cc2)sc2c1CCCC2`
1

Value lookup for inhibition; key = `COC(=O)Nc1nc2ccc(S(=O)(=O)c3ccc(NC(=O)Nc4cc(C(F)(F)F)ccc4F)cc3)cc2[nH]1`
2.73

Value lookup for inhibition; key = `COc1cc(/C=N/Nc2ncnc3[nH]ncc23)ccc1O`
4.03

Value lookup for inhibition; key = `CS(=O)(=O)CCNCc1ccc(-c2ccc3ncnc(Nc4ccc(OCc5ccccc5)c(C(F)(F)F)c4)c3c2)o1`
5.4

Value lookup for inhibition; key = `c1cc(-c2cnn3nc(N4CCOCC4)ccc23)nc(NC2CC2)n1`
6.12

Value lookup for inhibition; key = `Cc1cccc2c1NC(=O)/C2=N\Nc1ccc(S(N)(=O)=O)cc1`
3.6

Value lookup for inhibition; key = `Clc1ccc(-c2nn3ncccc3c2-c2ccnc(Nc3ccccc3)n2)cc1`
0.85

Value lookup for inhibition; key = `CCN1CCC(CC(=O)Nc2n[nH]c3nnc(-c4cccc(F)c4F)cc23)CC1`
3.86
